molecular target: T1, ADI-26920 IgG; test: SPR Carterra avidity, yeast anti-ID, *koff limit
T1 construct: anti-CD3 IgG
T1 sequence (VH, as listed by the source limits assumed, chain 1 of 2): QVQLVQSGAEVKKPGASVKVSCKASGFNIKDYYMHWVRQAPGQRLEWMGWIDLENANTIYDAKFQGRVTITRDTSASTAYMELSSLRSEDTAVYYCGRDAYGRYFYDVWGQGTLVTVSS
T1 sequence (VL, as listed by the source limits assumed, chain 2 of 2): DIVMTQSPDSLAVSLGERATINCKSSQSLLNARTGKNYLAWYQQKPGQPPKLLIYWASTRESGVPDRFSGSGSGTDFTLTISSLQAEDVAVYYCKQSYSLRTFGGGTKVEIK
Field: Kd. Provide a value for each of the binders that follow.
Give bare numbers, in nM.

ADI-34135 (antibody, V domains shown, anti-ID IgG) VH: QVQLVQSGAEVKKPGSSVKVSCKASGGTFSSYAISWVRQAPGQGLEWMGGIIPIFGTANYAQKFQGRVTITADESTSTAYMELSSLRSEDTAVYYCARGAPNYYGSGGYDDGWFDPWGQGTLVTVSS VL: EIVMTQSPGTLSLSPGERATLSCRASQSVSSSYLAWYQQKPGQAPRLLIYGASSRATGIPDRFSGSGSGTDFTLTISRLEPEDFAVYYCQQFGRYPTFGGGTKVEIK; 0.11
ADI-34137 (antibody, V domains shown, anti-ID IgG) VH: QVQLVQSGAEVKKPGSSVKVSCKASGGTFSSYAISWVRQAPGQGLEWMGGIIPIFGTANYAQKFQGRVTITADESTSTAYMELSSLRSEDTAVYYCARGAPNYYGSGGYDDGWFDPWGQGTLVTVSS VL: EIVLTQSPGTLSLSPGERATLSCRASQSVSSSYLAWYQQKPGQAPRLLIYGASSRATGIPDRFSGSGSGTDFTLTISRLEPEDFAVYYCQQFGRFPTFGGGTKVEIK; 0.088
ADI-30242 (antibody, V domains shown, anti-ID IgG) VH: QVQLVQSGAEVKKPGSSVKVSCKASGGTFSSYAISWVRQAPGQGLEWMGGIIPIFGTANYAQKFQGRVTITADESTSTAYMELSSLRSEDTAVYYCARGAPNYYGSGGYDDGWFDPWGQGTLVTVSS VL: EIVLTQSPGTLSLSPGERATLSCRASQSVSSSYLAWYQQKPGQAPRLLIYGASSRATGIPDRFSGSGSGTDFTLTISRLEPEDFAVYYCQQFGRDPTFGGGTKVEIK; 4.2

Attention now turns to another entry.
Reported Kd of ADI-34138 (antibody, V domains shown, anti-ID IgG) VH: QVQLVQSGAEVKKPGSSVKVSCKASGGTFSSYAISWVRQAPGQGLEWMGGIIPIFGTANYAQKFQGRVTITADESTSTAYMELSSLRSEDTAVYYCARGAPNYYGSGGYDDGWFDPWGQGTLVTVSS VL: EIVMTQSPGTLSLSPGERATLSCRASQSVSSSYLAWYQQKPGQAPRLLIYGASNRATGIPDRFSGSGSGTDFTLTISRLEPEDFAVYYCQQAHTALWTFGGGTKVEIK : 10
